B1: LOXL2 (parent)
chain: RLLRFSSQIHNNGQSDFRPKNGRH

Variants of: B1
Assay: protein stability index of a GFP-peptide fusion (GPS, HEK-293T) (PSI 1-6); higher = more stable;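 further: lentivirally expressed fusions sorted by FACS into six bins by GFP to DsRed ratio, PSI derived from sequencing read proportions per bin multiplied by bin number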
Details: c terminus: a fixed tail appended
ENDPOINT: protein stability index
Numbers only.

Recorded protein stability index, per entry:
RLLRFSSQIHNNCQSDFRPKNGRH [G13C] | 1.97
RLLRFSSQIHNNGQSDFRPRNGRH [K20R] | 2.78
RLLNFSSQIHNNGQSDFRPKNGRH [R4N] | 3.35
RLLRFSSQIHNNGQSDFRYKNGRH [P19Y] | 2.37
SLLRFSSQIHNNGQSDFRPKNGRH [R1S] | 2.58

Lab note: each variant below needs its protein stability index filled in.
1. RLLRFSSQIHNRGQSDFRPKNGRH [N12R]
2. RLLRFSSQNHNNGQSDFRPKNGRH [I9N]
3. RLLRMSSQIHNNGQSDFRPKNGRH [F5M]
4. RLLRFSSQIHNNGQSDHRPKNGRH [F17H]

1. 2.52
2. 3.19
3. 2.77
4. 3.52
